Reported Sélectivité IC50[^3H]TCP / IC50[^3H]BTCP values follow for various compounds
# subject.of.test: complexe de recapture de la dopamine (Rattus norvegicus, UniProt P23977)
# Construct: expériences de compétition sur les membranes de striatum préparées comme ci-dessus; from tissue; host or cells: rat striatal membranes
# Sequence (P23977 whole entry, one chain of several): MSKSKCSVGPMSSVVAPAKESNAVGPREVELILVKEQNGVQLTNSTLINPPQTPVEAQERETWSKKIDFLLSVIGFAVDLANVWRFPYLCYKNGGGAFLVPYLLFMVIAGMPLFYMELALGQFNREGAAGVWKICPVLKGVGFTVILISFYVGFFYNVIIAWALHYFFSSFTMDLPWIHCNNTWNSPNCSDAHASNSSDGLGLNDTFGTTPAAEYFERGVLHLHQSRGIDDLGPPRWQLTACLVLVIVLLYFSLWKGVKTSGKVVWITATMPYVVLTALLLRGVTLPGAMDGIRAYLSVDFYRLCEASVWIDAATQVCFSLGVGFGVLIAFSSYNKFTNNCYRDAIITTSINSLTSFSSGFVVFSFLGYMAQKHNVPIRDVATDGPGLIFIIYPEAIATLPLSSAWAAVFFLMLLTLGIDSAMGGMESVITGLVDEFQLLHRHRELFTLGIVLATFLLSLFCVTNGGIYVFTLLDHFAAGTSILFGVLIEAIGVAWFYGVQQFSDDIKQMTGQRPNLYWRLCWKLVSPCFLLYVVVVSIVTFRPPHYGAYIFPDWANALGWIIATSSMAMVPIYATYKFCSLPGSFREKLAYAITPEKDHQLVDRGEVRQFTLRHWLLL
# test.method.notes: biochemical
# Type: binding
# assay.context: ratio of IC50 at the PCP receptor to IC50 at the dopamine reuptake complex
Write the value as a bare number.

// worked examples, Sélectivité IC50[^3H]TCP / IC50[^3H]BTCP included
C[C@H]1CC[C@](c2cc3ccccc3s2)(N2CCCCC2)CC1    5410
CCCN(CCC)C1(c2cc3ccccc3s2)CCCCC1    58889

Data request: Need Sélectivité IC50[^3H]TCP / IC50[^3H]BTCP, item c1ccc2oc(C3(N4CCCCC4)CCCCC3)cc2c1
Data returned: 2094

Data request: Need Sélectivité IC50[^3H]TCP / IC50[^3H]BTCP, item OC1CCN(C2(c3cc4ccccc4s3)CCCCC2)CC1
Data returned: 2006

Data request: Need Sélectivité IC50[^3H]TCP / IC50[^3H]BTCP, item CC1CCCN(C2(c3cc4ccccc4s3)CCCCC2)C1 (stereo not shown)
Data returned: 3910
